Molecular target: T1, TNF-α (UniProt P01375 77-233, limits assumed)
T1 construct: also called tumor necrosis factor; ligand
T1 sequence (P01375 77-233 limits assumed): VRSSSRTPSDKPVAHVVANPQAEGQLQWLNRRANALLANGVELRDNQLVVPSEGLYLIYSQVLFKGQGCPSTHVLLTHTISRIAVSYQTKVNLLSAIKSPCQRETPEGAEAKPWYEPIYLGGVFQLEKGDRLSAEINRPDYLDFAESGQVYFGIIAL
Experiment: competition ELISA: sample vs plate-bound TNFRI190 for TNF-α, from IC50, relative to wild-type TNFRI126
Test Readout: Relative Affinity for Ligand (%)
Report as a plain number; the unit % is understood.

binder="TNFRI126-S48 (receptor, Met-TNFRI126 superlead mutant made in E. coli) MDSVCPQGKYIHPQNNSICCTKCHKGTYVYNDCPGPGQDTDCRECESGSFTAIPNFLPGCLSCSKCRKEMGQVEISSCTVDRDTVCGCRKNQYRHYWSENLFQCFNCSLCLNGTVHLSCQEKQNTVC" test_readout="Relative Affinity for Ligand (%)" result=477

As a next step, examine the binder that follows.
Consider TNFRI126-S56 (receptor, Met-TNFRI126 superlead mutant made in E. coli) MDSVCPQGKYIHPQNNSICCTKCHKGTYVYNDCPGPGQDTDCRECESGSFTAMENFLPACLSCSKCRKEMGQVEISSCTVDRDTVCGCRKNQYRHYWSENLFQCFNCSLCLNGTVHLSCQEQQNTVC . Its measured Relative Affinity for Ligand (%) is 602
